- system.under.test: α2B receptor (Homo sapiens, UniProt P18089)
- Construct: host or cells: LM(tk-) cells, line L-NGC-α2B
- Sequence (P18089 whole entry): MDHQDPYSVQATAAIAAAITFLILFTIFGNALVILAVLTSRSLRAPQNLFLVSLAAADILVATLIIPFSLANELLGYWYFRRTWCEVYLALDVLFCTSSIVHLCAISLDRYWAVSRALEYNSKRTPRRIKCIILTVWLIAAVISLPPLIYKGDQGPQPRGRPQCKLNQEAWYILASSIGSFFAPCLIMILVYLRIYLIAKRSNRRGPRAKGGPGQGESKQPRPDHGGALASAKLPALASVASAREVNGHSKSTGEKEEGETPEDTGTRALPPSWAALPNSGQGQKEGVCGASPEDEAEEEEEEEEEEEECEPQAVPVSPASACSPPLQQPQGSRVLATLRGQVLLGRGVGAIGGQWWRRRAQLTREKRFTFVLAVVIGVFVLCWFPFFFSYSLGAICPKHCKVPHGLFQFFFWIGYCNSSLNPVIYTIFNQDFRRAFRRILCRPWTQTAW
- assay.method.text: Competition binding, [3H]rauwolscine, human α2B receptor
- measurement.parameters: [3H]rauwolscine, LM(tk-) cell line L-NGC-α2B; SEM and n in lines below; read-out: pKi alpha-2 2b (converted)
Counter-ions that a name gives are not always drawn.
assay.readout: Ki (nM)
The answer is to be given in nM; state only the numeric part.

Input line: Request - read-out Ki | tested on α2B receptor (Homo sapiens, UniProt P18089) | compound CC1=C(C(=O)NCCCN2CCC(c3ccccc3)CC2)C(c2ccc([N+](=O)[O-])cc2)c2c([nH]c(=O)[nH]c2=O)N1 (stereo not shown)
Output line: 132

Input line: Request - read-out Ki | tested on α2B receptor (Homo sapiens, UniProt P18089) | compound COC(=O)C1=C(C)NC(C)=C(C(=O)NCCCN2CCC(c3ccccc3)CC2)C1c1ccc([N+](=O)[O-])cc1 (racemic) [(±)-45, hydrochloride hemihydrate]
Output line: 214

Input line: Request - read-out Ki | tested on α2B receptor (Homo sapiens, UniProt P18089) | compound COC(=O)C1=C(C)NC(C)=C(C(=O)NCCCN2CCC(c3ccccc3)(c3ccccc3)CC2)C1c1ccc([N+](=O)[O-])c(OC)c1 (stereo not shown)
Output line: 631

Input line: Request - read-out Ki | tested on α2B receptor (Homo sapiens, UniProt P18089) | compound CC1=C(C(N)=O)C(c2cccc([N+](=O)[O-])c2)C(C(=O)NCCCN2CCC(c3ccccc3)CC2)=C(C)N1 (stereo not shown)
Output line: 57.5

Input line: Request - read-out Ki | tested on α2B receptor (Homo sapiens, UniProt P18089) | compound COC(=O)C1=C(C)NC(C)=C(C(=O)NCCCN2CCC(c3ccccc3)CC2)C1c1ccc(Cl)c([N+](=O)[O-])c1 (stereo not shown)
Output line: 141

Input line: Request - read-out Ki | tested on α2B receptor (Homo sapiens, UniProt P18089) | compound CC1=C(C(N)=O)C(c2cccc([N+](=O)[O-])c2)C(C(=O)NCCCN2CCC(c3ccccc3)(c3ccccc3)CC2)=C(C)N1 (stereo not shown)
Output line: 603

Input line: Request - read-out Ki | tested on α2B receptor (Homo sapiens, UniProt P18089) | compound CNC(=O)C1=C(C)NC(C)=C(C(=O)NCCCN2CCC(c3ccccc3)CC2)C1c1ccc([N+](=O)[O-])cc1 (stereo not shown) [Example 56, hydrochloride hemihydrate]
Output line: 129

Input line: Request - read-out Ki | tested on α2B receptor (Homo sapiens, UniProt P18089) | compound COC(=O)C1=C(C)NC(C)=C(C(=O)NCCCN2CCc3cc(OC)c(OC)cc3C2)C1c1ccc([N+](=O)[O-])cc1 (stereo not shown) [Example 57, hydrochloride hydrate]
Output line: 1860

Input line: Request - read-out Ki | tested on α2B receptor (Homo sapiens, UniProt P18089) | compound COC(=O)C1=C(C)NC(C)=C(C(=O)NCCCN2CCCCC2)C1c1ccc([N+](=O)[O-])cc1 (stereo not shown)
Output line: 513

Input line: Request - read-out Ki | tested on α2B receptor (Homo sapiens, UniProt P18089) | compound CCC1=C(C(=O)NC2CCN(Cc3ccccc3)CC2)C(c2ccc([N+](=O)[O-])cc2)C(C(=O)OC)=C(C)N1 (stereo not shown) [Example 75, hydrochloride]
Output line: 3090

Input line: Request - read-out Ki | tested on α2B receptor (Homo sapiens, UniProt P18089) | compound COC(=O)C1=C(C)NC(C)=C(C(=O)NCCCCN2CCC(c3ccccc3)CC2)C1c1ccc([N+](=O)[O-])cc1 (stereo not shown) [Example 3, hydrochloride hydrate]
Output line: 22.4

Input line: Request - read-out Ki | tested on α2B receptor (Homo sapiens, UniProt P18089) | compound CCC1=C(C(=O)NCCCN2CCC(c3ccccc3)CC2)C(c2ccc([N+](=O)[O-])cc2)C(C(=O)OC)=C(C)N1 (stereo not shown) [Example 74, hydrochloride hydrate]
Output line: 89.1

Input line: Request - read-out Ki | tested on α2B receptor (Homo sapiens, UniProt P18089) | compound COC(=O)C1=C(C)NC(C)=C(C(=O)NCCCN2CCC(c3ccccc3)(c3ccccc3)CC2)C1c1ccc([N+](=O)[O-])c(C)c1 (stereo not shown)
Output line: 1660
